Attribution: patent US10899732B2

SYSTEM_TESTED: hNav1.7 (Homo sapiens)
Construct: expressed in transfected cells
Sequence (Q15858 1-1977 isoform Q15858-3): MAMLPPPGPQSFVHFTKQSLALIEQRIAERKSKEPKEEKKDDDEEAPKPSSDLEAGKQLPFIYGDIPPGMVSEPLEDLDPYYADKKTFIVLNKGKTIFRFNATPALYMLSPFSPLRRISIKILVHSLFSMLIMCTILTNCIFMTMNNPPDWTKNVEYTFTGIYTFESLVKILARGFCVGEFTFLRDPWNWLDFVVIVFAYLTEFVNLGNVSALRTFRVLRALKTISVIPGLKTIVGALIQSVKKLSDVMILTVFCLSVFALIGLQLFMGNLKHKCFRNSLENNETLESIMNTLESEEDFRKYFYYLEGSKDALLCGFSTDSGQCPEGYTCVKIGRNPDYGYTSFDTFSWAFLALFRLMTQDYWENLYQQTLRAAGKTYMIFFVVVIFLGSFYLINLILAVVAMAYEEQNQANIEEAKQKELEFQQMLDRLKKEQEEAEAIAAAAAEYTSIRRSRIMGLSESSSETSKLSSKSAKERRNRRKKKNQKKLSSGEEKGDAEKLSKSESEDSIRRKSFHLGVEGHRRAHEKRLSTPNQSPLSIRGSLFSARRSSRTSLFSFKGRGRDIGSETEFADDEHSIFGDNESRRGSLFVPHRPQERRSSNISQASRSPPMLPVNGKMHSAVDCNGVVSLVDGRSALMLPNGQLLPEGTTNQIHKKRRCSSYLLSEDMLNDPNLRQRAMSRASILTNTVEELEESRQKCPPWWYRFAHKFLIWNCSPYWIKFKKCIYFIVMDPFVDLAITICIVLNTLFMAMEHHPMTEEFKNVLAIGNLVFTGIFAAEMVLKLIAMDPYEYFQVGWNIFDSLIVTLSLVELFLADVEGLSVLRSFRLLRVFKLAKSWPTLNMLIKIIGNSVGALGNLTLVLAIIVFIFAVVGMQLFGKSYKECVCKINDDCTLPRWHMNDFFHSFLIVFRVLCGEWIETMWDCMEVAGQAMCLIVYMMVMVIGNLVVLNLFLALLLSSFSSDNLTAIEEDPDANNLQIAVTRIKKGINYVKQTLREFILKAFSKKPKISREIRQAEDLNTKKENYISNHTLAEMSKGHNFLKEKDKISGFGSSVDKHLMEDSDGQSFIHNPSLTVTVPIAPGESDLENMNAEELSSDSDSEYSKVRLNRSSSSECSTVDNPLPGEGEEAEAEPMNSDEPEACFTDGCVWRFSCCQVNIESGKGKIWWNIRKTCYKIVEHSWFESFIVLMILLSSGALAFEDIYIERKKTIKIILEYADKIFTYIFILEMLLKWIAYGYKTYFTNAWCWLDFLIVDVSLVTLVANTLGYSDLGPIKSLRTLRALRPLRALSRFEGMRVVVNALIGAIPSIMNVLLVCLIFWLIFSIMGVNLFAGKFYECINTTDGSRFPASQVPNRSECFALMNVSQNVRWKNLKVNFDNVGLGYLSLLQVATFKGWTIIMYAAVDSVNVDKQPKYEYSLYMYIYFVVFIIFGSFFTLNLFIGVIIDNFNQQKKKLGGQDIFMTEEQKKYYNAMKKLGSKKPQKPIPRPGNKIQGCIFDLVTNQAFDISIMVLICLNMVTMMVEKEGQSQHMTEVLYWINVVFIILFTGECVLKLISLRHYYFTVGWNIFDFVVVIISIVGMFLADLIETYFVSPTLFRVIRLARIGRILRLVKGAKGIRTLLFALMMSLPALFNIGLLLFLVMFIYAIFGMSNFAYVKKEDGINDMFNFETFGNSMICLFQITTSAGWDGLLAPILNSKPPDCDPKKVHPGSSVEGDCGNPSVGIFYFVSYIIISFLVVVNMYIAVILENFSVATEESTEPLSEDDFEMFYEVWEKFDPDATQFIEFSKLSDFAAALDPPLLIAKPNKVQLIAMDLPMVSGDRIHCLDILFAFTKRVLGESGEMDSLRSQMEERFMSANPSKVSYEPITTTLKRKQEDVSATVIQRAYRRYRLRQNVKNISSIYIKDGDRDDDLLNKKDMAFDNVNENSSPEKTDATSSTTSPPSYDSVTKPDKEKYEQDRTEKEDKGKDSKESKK
Sequence (Q07699 19-218 partner): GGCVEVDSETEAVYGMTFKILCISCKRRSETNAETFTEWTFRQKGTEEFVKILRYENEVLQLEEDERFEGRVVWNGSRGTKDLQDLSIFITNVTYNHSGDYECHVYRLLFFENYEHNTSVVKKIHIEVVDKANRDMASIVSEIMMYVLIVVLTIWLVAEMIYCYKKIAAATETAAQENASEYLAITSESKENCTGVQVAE
ASSAY_NOTES: Tritiated sulfonamide competitive binding to membranes from cells expressing hNav1.7 and the β1 subunit (LBA)
MEASUREMENT_CONDITIONS: competition with 100 pM [3H]compound, 18 h, room temperature; read-out: Nav1.7 (LBA)
pIC50: −log10 of the molar value. Counter-ions that a name gives are not always drawn.
METRIC: pIC50

The following molecules have reported results that may help.
MOLECULE	pIC50
Cc1nn(C23CC4CC(CC(C4)C2)C3)c2cc(F)c(C(=O)NS(C)(=O)=O)cc12	6.43
Cc1nn(-c2ccc3c(c2)CCCC3)c2cc(F)c(C(=O)NS(C)(=O)=O)cc12	7.00
Cc1nn(C2CCCCC2)c2cc(F)c(C(=O)NS(=O)(=O)N3CCC3)cc12	6.31
Cc1nn(C2CCN(Cc3cc(OC(F)(F)F)ccc3Br)CC2)c2cc(F)c(C(=O)NS(=O)(=O)C3CC3)cc12 [Example 7, 2,2,2-trifluoroacetate]	8.30
Cc1nn(C23CC4CC(CC(C4)C2)C3)c2cc(F)c(C(=O)NS(=O)(=O)N3CCC3)cc12	6.74

1: Cc1nn(C2CCCCC2)c2cc(F)c(C(=O)NS(C)(=O)=O)cc12
2: Cc1nn([C@@H]2CCN([C@H](C)c3cc(Cl)cc(Cl)c3)C2)c2cc(F)c(C(=O)NS(C)(=O)=O)cc12 [Example 16, trifluoroacetic acid salt]
3: Cc1nn(C2CN(Cc3cc(Cl)cc(OC(F)(F)F)c3)C2)c2cc(F)c(C(=O)NS(C)(=O)=O)cc12
4: Cc1nn(CC23CC4CC(CC(C4)C2)C3)c2cc(F)c(C(=O)N[S@TB2](C)(=O)=O)cc12
-- ask Arrange by pIC50, high to low. Response field: labels, in requested order.
-- reply 2, 3, 4, 1

A: Cc1nn(C2CN(C(c3ccccc3)c3ccccc3)C2)c2cc(F)c(C(=O)NS(C)(=O)=O)cc12
B: Cc1nn(CC2CN(C(c3ccccc3)c3ccccc3)C2)c2cc(F)c(C(=O)NS(C)(=O)=O)cc12
C: Cc1nn([C@@H]2CCN([C@H](C)c3cc(Cl)cc(Cl)c3)C2)c2cc(F)c(C(=O)NS(=O)(=O)C3CC3)cc12 [Example 17, 2,2,2-trifluoroacetate]
-- ask Arrange these molecules by their pIC50, starting with the largest number. Dear reader, please state the labels in the requested order.
-- reply C, A, B

P: Cc1nn(C2CCC(C(C)(C)C)CC2)c2cc(F)c(C(=O)NS(C)(=O)=O)cc12 (stereo not drawn)
Q: Cc1nn(C2CN(Cc3cc(Cl)cc(OC(F)(F)F)c3)C2)c2cc(F)c(C(=O)NS(=O)(=O)C3CC3)cc12
-- ask Of P versus Q , which is the one with smaller reported pIC50? Which one? Tell me its label.
-- reply P
(P: 7.33, Q: 7.96)

====

SYSTEM_TESTED: NaV1.5 (Homo sapiens, UniProt Q14524)
Construct: expression vector containing the full-length cDNA coding for the desired human sodium channel α-subunit; expressed in transfected cells; host or cells: HEK-293
Sequence (Q14524 whole entry): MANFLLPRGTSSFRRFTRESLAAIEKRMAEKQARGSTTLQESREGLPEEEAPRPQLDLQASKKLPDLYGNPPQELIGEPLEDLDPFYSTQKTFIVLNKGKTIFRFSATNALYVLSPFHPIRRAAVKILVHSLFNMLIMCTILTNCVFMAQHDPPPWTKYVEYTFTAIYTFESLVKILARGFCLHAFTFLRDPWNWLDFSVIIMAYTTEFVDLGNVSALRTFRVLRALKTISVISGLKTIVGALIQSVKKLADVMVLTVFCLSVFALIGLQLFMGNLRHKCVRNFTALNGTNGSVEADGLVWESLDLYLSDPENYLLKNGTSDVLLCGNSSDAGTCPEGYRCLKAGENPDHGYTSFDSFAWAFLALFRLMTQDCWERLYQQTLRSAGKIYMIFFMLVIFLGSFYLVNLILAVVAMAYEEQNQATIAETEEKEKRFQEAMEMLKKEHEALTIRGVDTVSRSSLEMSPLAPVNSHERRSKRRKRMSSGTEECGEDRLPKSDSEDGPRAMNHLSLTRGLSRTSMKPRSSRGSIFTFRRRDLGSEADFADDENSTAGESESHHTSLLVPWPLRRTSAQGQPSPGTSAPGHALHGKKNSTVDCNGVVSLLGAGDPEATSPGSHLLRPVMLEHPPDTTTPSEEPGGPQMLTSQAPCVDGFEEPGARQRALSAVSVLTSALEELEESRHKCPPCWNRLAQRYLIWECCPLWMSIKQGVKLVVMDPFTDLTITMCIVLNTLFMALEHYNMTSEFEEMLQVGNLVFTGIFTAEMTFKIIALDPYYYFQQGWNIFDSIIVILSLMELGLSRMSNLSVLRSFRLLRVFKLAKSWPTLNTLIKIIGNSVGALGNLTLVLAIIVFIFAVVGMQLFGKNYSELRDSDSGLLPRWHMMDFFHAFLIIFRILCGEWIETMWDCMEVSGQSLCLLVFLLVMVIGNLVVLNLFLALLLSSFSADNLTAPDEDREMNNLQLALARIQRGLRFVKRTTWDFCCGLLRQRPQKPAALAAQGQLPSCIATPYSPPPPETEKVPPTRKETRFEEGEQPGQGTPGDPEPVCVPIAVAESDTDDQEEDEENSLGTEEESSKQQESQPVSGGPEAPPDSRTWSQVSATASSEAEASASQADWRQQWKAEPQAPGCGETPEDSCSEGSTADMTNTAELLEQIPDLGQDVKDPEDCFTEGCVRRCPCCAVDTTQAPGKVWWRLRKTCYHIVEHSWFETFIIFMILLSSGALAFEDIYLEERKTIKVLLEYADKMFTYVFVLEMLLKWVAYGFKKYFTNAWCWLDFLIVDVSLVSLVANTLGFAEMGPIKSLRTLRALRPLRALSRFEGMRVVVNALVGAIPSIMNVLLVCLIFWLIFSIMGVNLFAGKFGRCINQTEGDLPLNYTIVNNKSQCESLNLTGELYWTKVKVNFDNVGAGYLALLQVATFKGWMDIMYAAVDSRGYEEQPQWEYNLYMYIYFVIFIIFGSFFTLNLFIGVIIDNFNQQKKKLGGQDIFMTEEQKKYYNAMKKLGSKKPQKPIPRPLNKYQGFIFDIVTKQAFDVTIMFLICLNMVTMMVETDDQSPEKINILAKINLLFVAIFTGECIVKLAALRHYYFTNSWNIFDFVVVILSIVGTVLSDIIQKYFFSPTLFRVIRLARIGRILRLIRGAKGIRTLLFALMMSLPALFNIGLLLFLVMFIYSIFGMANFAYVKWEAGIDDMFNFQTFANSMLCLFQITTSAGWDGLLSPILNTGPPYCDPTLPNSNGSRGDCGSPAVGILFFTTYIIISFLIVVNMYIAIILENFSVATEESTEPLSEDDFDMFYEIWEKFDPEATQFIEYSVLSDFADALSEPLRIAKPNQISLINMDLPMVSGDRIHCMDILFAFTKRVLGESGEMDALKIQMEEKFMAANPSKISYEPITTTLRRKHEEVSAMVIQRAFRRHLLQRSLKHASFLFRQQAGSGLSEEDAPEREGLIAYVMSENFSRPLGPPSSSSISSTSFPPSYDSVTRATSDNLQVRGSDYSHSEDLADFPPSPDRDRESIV
ASSAY_NOTES: Patch voltage clamp electrophysiology assay (EP), NaV1.5 in HEK-293 cells
Assay type: cell-based
MEASUREMENT_CONDITIONS: HEK-293, β1 coexpressed, held at -60 mV (inactivated state)
Counter-ions that a name gives are not always drawn.
Listed here are molecules together with their documented pIC50.
# pIC50 = -log10(concentration in molar units)

Study these solved cases before continuing.
MOLECULE	pIC50
Cc1nn([C@@H]2CCN([C@@H](C)c3cc(Cl)cc(Cl)c3)C2)c2cc(F)c(C(=O)NS(C)(=O)=O)cc12 [Example 18, trifluoroacetic acid salt]	4.77
Cc1nn([C@@H]2CCN([C@@H](C)c3cc(Cl)cc(Cl)c3)C2)c2cc(F)c(C(=O)NS(=O)(=O)C3CC3)cc12 [Example 19, trifluoroacetic acid salt]	5.20
Cc1nn(C2CCN(Cc3cc(C(F)(F)F)cc(Cl)c3F)CC2)c2cc(F)c(C(=O)NS(=O)(=O)N3CCC3)cc12 [Example 3, 2,2,2-trifluoroacetate]	5.13
Cc1nn(C2CCN([C@H](C)c3cc(Cl)cc(Cl)c3)CC2)c2cc(F)c(C(=O)NS(=O)(=O)C3CC3)cc12	5.08
Cc1nn([C@@H]2CCN(Cc3cc(Cl)ccc3C(F)(F)F)C2)c2cc(F)c(C(=O)NS(=O)(=O)C3CC3)cc12 [Example 12, 2,2,2-trifluoroacetate]	6.29

# evaluate next
-- ask Enter pIC50 (test system NaV1.5 (Homo sapiens, UniProt Q14524)) for Cc1nn(C2CCN(Cc3cc(Cl)ccc3C(F)(F)F)CC2)c2cc(F)c(C(=O)NS(=O)(=O)C3CC3)cc12
-- reply 6.21
